Target: COP9 signalosome complex subunit 5 (Homo sapiens)
Assay: CSN5 deneddylase inhibitors on cullin-RING ligase – biochemical, fluorescence polarization, uHTS, primary screen (AID 651999);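 also: 0% = enzyme with substrate and 100% = substrate without enzyme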
Conditions: Purified CSN, SCF-Nedd8-OG deneddylation, at 12.5 µM, active compounds read high
About 1,400 (0.39%) of roughly 360,000 compounds were called active. The list comes from a sample in which actives are over-represented; it also holds close analogues and randomly drawn compounds.
endpointLabel: inhibition (%)
Give bare numbers, in %.

molecule=Cc1ccccc1C(=O)NNC(=O)CN1C(=O)c2ccccc2C1=O datavalue=6.43
molecule="CCOC(=O)C1CCN(C(=O)CC2C(=O)N(Cc3ccccc3)C(C)c3nc4ccccc4n32)CC1 (configuration not stated)" datavalue=4.78
molecule="CCCCC(c1nnnn1CS(=O)(=O)c1ccc(C)cc1)N1CCC(C(N)=O)CC1 (configuration not stated)" datavalue=-2.76
molecule=CC1(C)C=Cc2c(ccc3c2OC[C@@H](c2ccc(O)cc2O)C3)O1 datavalue=1.92
molecule=Cc1cccc(NS(=O)(=O)c2cccc(C(=O)NNC(=O)c3ccccc3O)c2)c1 datavalue=-6.82

Provide the reported inhibition of each entry below, same order.
1. COc1ccccc1CNC(=O)CCCNS(=O)(=O)c1cccc2nsnc12
2. CCSc1nc(C)c(CCOc2cccc(C)c2)c(=O)[nH]1

Result string:
1. 1.39
2. -18.6

====

Target: COP9 signalosome complex subunit 5 (Homo sapiens)
Test: CSN5 deneddylase inhibitors on cullin-RING ligase – biochemical, fluorescence polarization, uHTS, primary screen (AID 651999);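 also: 0% = enzyme with substrate and 100% = substrate without enzyme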
Settings: Purified CSN, SCF-Nedd8-OG deneddylation, at 12.5 µM, active compounds read high
Among all 360,000 compounds or so, about 1,400 (0.39%) were called active. The full list was thinned out, with actives kept by preference.
endpointLabel: inhibition (%)
Answers are plain numbers, in %.

Answered cases to consult:
molecule=C=CCC1=C/C(=C\c2c(N)n3nc(CC(=O)N4CCOCC4)sc3nc2=O)C=C(OC)C1=O endpointlabel=inhibition datavalue=72.5
molecule=Cc1cccn2c(=O)c3cc(C(=O)NC4CCCCC4)sc3nc12 endpointlabel=inhibition datavalue=38.6
molecule="COc1ccc(S(=O)(=O)N2CCN(CC(=O)N3c4ccccc4CC3C)CC2)cc1OC (stereo not drawn)" endpointlabel=inhibition datavalue=18.4
molecule=Cc1nn(C)c(Cl)c1CN1CCC(Oc2ccc(C(=O)N3CCCC3)cc2)CC1 endpointlabel=inhibition datavalue=-0.97
molecule=Cc1ccc(CNS(=O)(=O)c2ccc3c(c2)N(C)CCO3)cc1 endpointlabel=inhibition datavalue=-2.61

Provide the reported inhibition of each entry below, same order.
1. O=C(CCN1C(=O)COc2ccccc21)NCCCN1CCN(c2ccc(F)cc2)CC1
2. CCCN(CC1CC1)C(=S)NC(=O)c1ccccc1Br
3. N#Cc1c(NC(=O)CCCN2C(=O)c3ccccc3C2=O)oc(-c2ccccc2)c1-c1ccccc1

Result string:
-4.53
-6.61
-3.56

Provide the reported inhibition of each entry below, same order.
1. Cc1c(CNCCc2ccccc2)c(C(=O)O)c(C)n1-c1ccccc1
2. COC1=C/C(=C/c2c(N)n3nc(CC(=O)N4CCOCC4)sc3nc2=O)C=CC1=O
3. COc1ccc(Cc2nnc(SCC(=O)N(c3ccccc3)C(C)C)n(N)c2=O)cc1

Result string:
-2.52
16.1
2.75

====

Molecular target: COP9 signalosome complex subunit 5 (Homo sapiens) (UniProt Q92905)
Sequence (Q92905 whole entry, looked up, one chain of several): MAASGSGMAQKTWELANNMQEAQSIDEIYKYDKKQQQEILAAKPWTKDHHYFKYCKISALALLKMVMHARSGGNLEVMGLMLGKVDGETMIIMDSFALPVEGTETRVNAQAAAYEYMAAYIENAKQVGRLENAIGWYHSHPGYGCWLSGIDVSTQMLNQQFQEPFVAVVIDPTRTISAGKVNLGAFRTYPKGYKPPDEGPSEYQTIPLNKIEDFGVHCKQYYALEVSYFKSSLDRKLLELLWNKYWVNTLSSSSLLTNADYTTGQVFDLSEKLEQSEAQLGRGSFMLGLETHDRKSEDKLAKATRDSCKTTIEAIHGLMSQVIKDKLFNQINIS
Assay: CSN5 deneddylase inhibitors on cullin-RING ligase – biochemical, fluorescence polarization, uHTS, primary screen (AID 651999);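 also: 0% = enzyme with substrate and 100% = substrate without enzyme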
Settings: Purified CSN, SCF-Nedd8-OG deneddylation, at 12.5 µM
Screen size: about 360,000 compounds; about 1,400 (0.39%) were called active.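 The calls were made as follows: active = pattern-corrected inhibition above about 35%, with an unprinted fluorescence ratio check between 0.5 and 1.5 (limit read from the data, passing the limit was not always enough); inactive = the rest.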 The full list was thinned out, with actives kept by preference.
Hello, when you answer, please use one of the following outcomes: Y for active, N for inactive

As a guide, the following entries are already answered.
molecule=CCCSc1nc2[nH]ncc2c(=O)[nH]1 group=N
molecule="CCOC(=O)C1(Cc2cccc(OC)c2)CCN(C(C)CC(C)(C)O)CC1 (configuration not stated)" group=N
molecule="CC(Oc1ccc(-c2ccccc2)c(F)c1)c1ccn(S(=O)(=O)c2cccc3ccccc23)n1 (configuration not stated)" group=N
molecule="O=C(CC1SC(N2CCOCC2)=NC1=O)Nc1ccccc1F (configuration not stated)" group=N
molecule="O=C1Nc2cc(C(=O)N3CCN(c4ccc(F)cc4)CC3)ccc2NC1CSCc1cccc(F)c1 (configuration not stated)" group=Y

Query string: Outcome? "O=C(CNC(=O)c1ccccc1F)c1ccc(Br)cc1"
Result string: N

Query string: Outcome? "CNC(=O)/C(C#N)=C/c1c(F)cccc1Cl"
Result string: N

Query string: Outcome? "Cc1nonc1OCCn1nnnc1N"
Result string: N

Query string: Outcome? "O=c1c2ccccc2c(-c2ccccc2)nn1-c1ccccn1"
Result string: N

Query string: Outcome? "Cc1cc(NS(=O)(=O)c2ccc(NC(=O)c3cccc(OC(F)F)c3)cc2)nc(C)n1"
Result string: N

Query string: Outcome? "Cc1noc(C)c1S(=O)(=O)N(C)C[C@H]1Oc2ccc(NC(=O)C3CCCCC3)cc2C(=O)N([C@H](C)CO)C[C@@H]1C"
Result string: N

Query string: Outcome? "Cc1ccc(-c2nc3c(C)cc(Br)cn3c2Cc2ccccc2)cc1"
Result string: N

Data origin, for the record: PubChem BioAssay AID651999
